Biological target: AMPK
Assay: AMPK activation, enzyme-linked immunosorbent assay
Type: biochemical
Settings: Table 13, compounds of Table 6
PROPERTY: EC50

These solved cases illustrate the format of a correct answer.
Cc1cc2oc(C(=O)NC3CCN(Cc4ccc(C#N)cc4)CC3)cc2cc1NC(=O)C1CCN(c2ccc(C#N)cc2)CC1 < 100 nM
O=C(NC1CCN(Cc2ccncc2)CC1)c1cc2cc(C(=O)N3CCC(C(=O)c4ccc(F)cc4)CC3)ccc2o1 100 to 1000 nM
COc1ccc(CN2CCC(NC(=O)c3cc4ccc(C(=O)N5CCN(Cc6ccc(S(C)(=O)=O)cc6)CC5)cc4o3)CC2)cc1 < 100 nM
CS(=O)(=O)c1ccc(CN2CCN(C(=O)c3ccc4cc(C(=O)Nc5ccc(Oc6ccc(C#N)cc6)nc5)oc4c3)CC2)cc1 < 100 nM
CC(C)S(=O)(=O)c1ccc(N2CCN(C(=O)c3ccc4oc(C(=O)NC5CCN(Cc6ccc(C#N)cc6)CC5)cc4c3)CC2)cc1 < 100 nM
N#Cc1ccc(CN2CCC(NC(=O)c3cc4cc(C(=O)N5CCN(Cc6ccc(OC(F)(F)F)cc6)CC5)ccc4o3)CC2)cc1 < 100 nM
CN(C)C(=O)c1ccc(N2CCN(C(=O)c3ccc4oc(C(=O)NC5CCN(Cc6ccc(C#N)cc6)CC5)cc4c3)CC2)cc1 100 to 1000 nM
O=C(Nc1ccc(Oc2ccc(F)cc2)nc1)c1cc2cc(C(=O)N3CCC(Oc4ccc(C(F)(F)F)cc4)CC3)ccc2o1 < 100 nM

input: Reported EC50 for O=C(Nc1ccc2oc(C(=O)N3CCC(Oc4ccc(C(F)(F)F)cc4)CC3)cc2c1)c1ccc(Oc2ccc(F)cc2)cc1 : what is it?
output: < 100 nM

input: Reported EC50 for CS(=O)(=O)c1ccc(N2CCN(c3ccc4oc(C(=O)NC5CCN(Cc6ccc(C#N)cc6)CC5)cc4c3)CC2)cc1 : what is it?
output: 100 to 1000 nM

---

Catalogue of EC50 readings, one per entry.
Biological target: AMPK
Assay: AMPK activation, enzyme-linked immunosorbent assay
Assay type: biochemical
Conditions: Table 14, compounds of Table 7

input: Reported EC50 for COc1ccc(C(=O)C2CCN(C(=O)c3ccc(C(=O)NC4CCN(Cc5ccc(OC)c(C#N)c5)C[C@@H]4C)cn3)CC2)cc1 (stereo partly shown) : what is it?
output: < 1000 nM

input: Reported EC50 for Cc1nc2cc(OC3CCN(C(=O)c4ccc(C(=O)NC5CCN(Cc6ccc(C#N)cc6)CC5)cn4)CC3)ccc2s1 : what is it?
output: < 1000 nM

input: Reported EC50 for O=C(NC1CCN(Cc2ccc(OC(F)(F)F)cc2)CC1)c1ccc(C(=O)N2CCC(C(=O)c3ccc(N4CCCC4)cc3)CC2)nc1 : what is it?
output: < 1000 nM

---

Target: AMPK
Assay: AMPK activation, enzyme-linked immunosorbent assay
Type: biochemical
Conditions: Table 8, compounds of Table 1
PROPERTY: EC50

These solved cases illustrate the format of a correct answer.
N#Cc1ccc(CN2CC[C@@H](NC(=O)c3ccc(OC4CCN(c5ccc(C(F)(F)F)cc5)CC4)cn3)C2)cc1 500 to 1000 nM
CN(C(=O)c1cc2cc(OC3CCN(c4ccc(C(F)(F)F)cc4)CC3)ccc2o1)C1CCN(Cc2cccc(C#N)c2)CC1 < 100 nM
Cc1c(C(=O)NC2CCN(Cc3cccnc3)CC2)oc2cc(OC3CCN(c4ccc(C(F)(F)F)cc4)CC3)ccc12 < 100 nM
O=C(N[C@@H]1CCN(Cc2ccccn2)C1)c1cc2cc(OC3CCN(c4ccc(C(F)(F)F)cc4)CC3)ccc2o1 1000 to 5000 nM
N#Cc1ccc(-n2cc(CN3CC[C@@H](Oc4ccc5oc(C(=O)NC6CCN(Cc7ccc(OC(F)(F)F)cc7)CC6)cc5c4)[C@H](F)C3)cn2)cc1 < 100 nM

input: Reported EC50 for O=C(NC1CCN(C(=O)c2ccncc2)CC1)c1cc2ccc(OC3CCN(c4ccc(C(F)(F)F)cc4)CC3)cc2o1 : what is it?
output: < 100 nM

input: Reported EC50 for O=C(NC1CCN(Cc2ccncc2)CC1)c1cc(OC2CCN(c3ccc(C(F)(F)F)cc3)CC2)ccn1 : what is it?
output: 100 to 500 nM

input: Reported EC50 for O=C(N[C@@H]1CCN(Cc2ccc(F)cc2)C1)c1ccc(OC2CCN(c3ccc(C(F)(F)F)cc3)CC2)cn1 : what is it?
output: 500 to 1000 nM

input: Reported EC50 for O=C(NC1CN(Cc2ccncc2)C1)c1ccc(OC2CCN(c3ccc(C(F)(F)F)cc3)CC2)cn1 : what is it?
output: 1000 to 5000 nM

The values you see were collected from patent US9409884B2.
